Source listed as paper PMC5821946.

- TEST_TARGET: indoleamine 2,3-dioxygenase-1 (IDO-1) (Homo sapiens, UniProt P14902)
- Construct: PBMC were isolated from healthy donors who gave written consent that their donated blood may be used for scientific purposes; endogenous in cells
- Sequence (P14902 whole entry): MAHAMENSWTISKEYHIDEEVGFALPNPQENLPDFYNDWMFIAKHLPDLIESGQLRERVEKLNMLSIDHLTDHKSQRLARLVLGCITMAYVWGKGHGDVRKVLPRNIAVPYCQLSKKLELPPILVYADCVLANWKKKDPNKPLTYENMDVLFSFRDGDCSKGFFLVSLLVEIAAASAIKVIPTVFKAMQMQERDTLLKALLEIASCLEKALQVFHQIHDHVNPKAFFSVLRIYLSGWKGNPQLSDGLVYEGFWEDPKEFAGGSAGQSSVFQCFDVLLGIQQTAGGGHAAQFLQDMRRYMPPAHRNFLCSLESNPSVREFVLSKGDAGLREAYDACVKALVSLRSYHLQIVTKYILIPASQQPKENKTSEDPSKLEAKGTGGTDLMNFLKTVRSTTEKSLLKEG
- TEST_SUMMARY: Tryptophan breakdown to kynurenine (Kyn/Trp by HPLC) in PBMC supernatants after 48 h treatment
pIC50: −log10 of the molar value.
The label depends only on pIC50: condition met if it is at least 4, condition not met if it is smaller.

- COMPOUND: "CC(C)C1=C(O)C(=O)C2=C(C1=O)[C@H](O)C[C@H]1C(C)(C)CCC[C@]21C [compound 1, horminone]"
  LABEL_VALUE: "condition not met"

Could you please find out whether C=C1[C@@H](C)CC[C@]2(C)c3c(O)c(OC)c(C(C)C)c(O)c3C(=O)C[C@@H]12 [compound 7, agastol] has pIC50 that meets 4 or exceeds it?
condition not met

Could you please find out whether CC(=O)O[C@@H]1C[C@H]2C(C)(C)CCC[C@]2(C)C2=C1C(=O)C(C(C)C)=C(O)C2=O [compound 2, 7-O-acetylhorminone] has pIC50 that meets 4 or exceeds it?
condition met

Could you please find out whether COC1=C(C(C)C)C(=O)c2c(O)cc3c(c2C1=O)C=CC(=O)C3(C)C [compound 3, agastaquinone] has pIC50 that meets 4 or exceeds it?
condition met
